Can you tell me Ki for the items I'm about to list?
Molecular target: UniProt:Q04759
Sequence (Q04759 whole entry): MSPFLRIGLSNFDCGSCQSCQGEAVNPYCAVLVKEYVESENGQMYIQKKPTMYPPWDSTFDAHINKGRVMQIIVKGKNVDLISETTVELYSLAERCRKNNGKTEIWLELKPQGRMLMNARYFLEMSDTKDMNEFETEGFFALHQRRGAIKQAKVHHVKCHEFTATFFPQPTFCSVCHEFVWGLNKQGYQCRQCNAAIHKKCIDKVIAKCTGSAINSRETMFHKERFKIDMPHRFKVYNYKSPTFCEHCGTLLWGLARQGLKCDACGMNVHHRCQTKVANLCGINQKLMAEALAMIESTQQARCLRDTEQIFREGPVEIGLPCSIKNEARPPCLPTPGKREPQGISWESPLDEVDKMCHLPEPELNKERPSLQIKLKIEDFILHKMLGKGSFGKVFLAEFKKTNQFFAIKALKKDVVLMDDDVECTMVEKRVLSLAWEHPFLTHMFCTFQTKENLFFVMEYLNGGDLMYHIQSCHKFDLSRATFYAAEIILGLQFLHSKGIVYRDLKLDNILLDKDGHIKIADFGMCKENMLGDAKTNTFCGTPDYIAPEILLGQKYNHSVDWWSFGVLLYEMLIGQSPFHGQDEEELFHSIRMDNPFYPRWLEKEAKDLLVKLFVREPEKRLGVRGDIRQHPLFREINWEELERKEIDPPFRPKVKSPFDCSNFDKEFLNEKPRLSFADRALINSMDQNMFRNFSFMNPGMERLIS
Write the answer as a number in nM, unit excluded.

Entry NC[C@@H](C(=O)Nc1ccc2cnccc2c1)c1ccc(CO)cc1 [Netarsudil-M1] — recorded Ki = 27

Entry Cc1ccc(C(=O)OCc2ccc([C@@H](CN)C(=O)Nc3ccc4cnccc4c3)cc2)c(C)c1 [Netarsudil] — recorded Ki = 92
